Data provenance is paper PMC4339681.

- Target Under Test: UniProt Q7BK04
- Experimental Details: colorimetric in vitro ATPase assay (release of inorganic phosphate), IC50 estimation
- Assay type: biochemical
Output schema: class label derived from IC50. Mapping: lower level (below 20 µM), middle level (20 µM to below 80 µM), upper level (80 µM or more)

>  <Input Smiles>
O=S(=O)(Nc1cccc(Nc2nccn3cc(-c4ccc5ccccc5c4)nc23)c1)c1cccc2cccnc12

>  <Target Under Test>
UniProt Q7BK04

>  <Assigned Label>
lower level

$$$$

# input Hey, which category is Cc1ccc(S(=O)(=O)Nc2ccc(Nc3nccn4c(-c5ccsc5)cnc34)cc2)cc1 in, do you know?
# output middle level

# input Hi, small favor: classify Cc1ccc(S(=O)(=O)Nc2ccc(CNc3nccn4cc(-c5ccc6ccccc6c5)nc34)cc2)cc1 by its IC50 when you get a moment.
# output middle level

# input Band assignment needed for Cc1ccc(S(=O)(=O)Nc2nccn3cc(-c4cc(C)cc(C)c4)nc23)cc1 please.
# output upper level

# input Please classify: COc1ccc(-c2cn3ccnc(NS(=O)(=O)c4ccc(C)cc4)c3n2)cc1OC
# output upper level

# input Kindly identify the class of Cc1ccc(S(=O)(=O)Nc2ccc(Nc3nccn4cc(-c5ccccc5Oc5ccccc5)nc34)cc2)cc1 .
# output lower level

# input Which IC50 band matches Nc1ccc(Nc2nccn3cc(-c4ccc5ccccc5c4)nc23)cc1 ?
# output lower level

# input Lab log: Nc1nccn2cc(-c3ccc4ccccc4c3)nc12 — assign IC50 category
# output upper level

# input Please report the category associated with Cc1ccc(S(=O)(=O)Nc2nccn3cc(-c4ccc5ccccc5c4)nc23)cc1 , nothing else.
# output upper level

# input # classify by IC50 band: Cc1ccc(S(=O)(=O)Nc2ccc(Nc3nccn4cc(-c5cnc6ccccc6n5)nc34)cc2)cc1
# output middle level

# input Band for O=S(=O)(Nc1ccc(Nc2nccn3cc(-c4ccc5ccccc5c4)nc23)cc1)c1cccc2cccnc12 ?
# output lower level

# input # classify by IC50 band: Cc1ccc(S(=O)(=O)NCCNc2nccn3cc(-c4ccc5ccccc5c4)nc23)cc1
# output lower level

# input # bin lookup: classify Cc1ccc(S(=O)(=O)Nc2ccc(Nc3nccn4cc(-c5ccsc5)nc34)cc2)cc1 by its IC50
# output upper level

# input Which class does Cc1ccc(S(=O)(=O)Nc2ccc(Oc3nccn4cc(-c5ccc6ccccc6c5)nc34)cc2)cc1 fall in?
# output middle level

* * *

- Target Under Test: VirB11 ATPase HP0525 (Helicobacter pylori, UniProt Q7BK04)
- Sequence (Q7BK04 entry or part of it): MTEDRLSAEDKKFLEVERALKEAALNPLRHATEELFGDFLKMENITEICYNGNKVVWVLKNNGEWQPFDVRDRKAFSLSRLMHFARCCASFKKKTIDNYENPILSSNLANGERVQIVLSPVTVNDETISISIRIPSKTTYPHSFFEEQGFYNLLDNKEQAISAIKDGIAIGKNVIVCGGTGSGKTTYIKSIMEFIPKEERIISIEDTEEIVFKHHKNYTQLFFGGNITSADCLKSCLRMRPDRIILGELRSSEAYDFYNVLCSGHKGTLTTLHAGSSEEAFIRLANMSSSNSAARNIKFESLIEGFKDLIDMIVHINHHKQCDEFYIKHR
- Experimental Details: colorimetric in vitro ATPase assay (release of inorganic phosphate), IC50 estimation
- Assay type: biochemical
Assay Endpoint: IC50 (µM)
# value in µM; strip the unit string

The following molecules have reported results that may help.
>  <Input Smiles>
Cc1ccc(S(=O)(=O)Nc2ccc(Nc3nccn4cc(-c5ccc6ccccc6c5)nc34)cc2)cc1

>  <Assay Endpoint>
IC50

>  <Reported Measurement>
6

$$$$
>  <Input Smiles>
Cc1ccc(S(=O)(=O)Nc2nccn3c(-c4ccccc4Oc4ccccc4)cnc23)cc1

>  <Assay Endpoint>
IC50

>  <Reported Measurement>
96

$$$$

# input Indicate the recorded IC50 value for this molecule: COc1ccc(-c2cnc3c(NS(=O)(=O)c4ccc(C)cc4)nccn23)cc1OC
# output 144

# input Return IC50 for the following molecule: c1cncc(-c2cccc(Nc3nccn4cc(-c5ccc6ccccc6c5)nc34)c2)c1
# output 4

# input For the molecule Cc1ccc(S(=O)(=O)Nc2nccn3c(-c4cc(C)cc(C)c4)cnc23)cc1 , report IC50.
# output 154

# input Input CS(=O)(=O)Nc1ccc(Nc2nccn3cc(-c4ccc5ccccc5c4)nc23)cc1 , output reported IC50.
# output 61

# input Please supply the value of reported IC50 for the item Cc1ccc(S(=O)(=O)NCCCNc2nccn3cc(-c4ccc5ccccc5c4)nc23)cc1
# output 58
